# maps each entry to its melting point

Worked examples follow.
>>> observed_measurement("COC(=O)c1cc(N)c(Cl)c(N)c1")
"110 to 120 °C"
>>> observed_measurement("CCCCCCCC(=O)C=Cc1ccc(O)c(OC)c1")
"45 °C"
>>> observed_measurement("CC1CC(=O)NN=C1c1ccc(C(=O)OC2CCCC2)cc1 (stereo not given)")
"120 to 122 °C"
>>> observed_measurement("Cc1cc(-n2ccnc2)c2cccc(OCc3c(Cl)ccc(S(=O)(=O)N4CCC[C@H]4C(=O)NCC4CCNCC4)c3Cl)c2n1")
"150 °C"
>>> observed_measurement("CCCN(CCC)C(=O)CN(C(=O)CN1C(=O)c2ccccc2C1=O)c1ccccc1")
"130 °C"

Recorded melting point (compound O=C(O)COn1cccn1 ): 99 °C

Recorded melting point (compound O=CCCCN1C(=O)c2ccccc2C1=O ): 70 °C

Recorded melting point (compound COc1ccc2c(c1)CCC1=C2CCC(O)C1 (stereo not given) ): 90 to 92 °C

====

# maps each entry to its melting point

Worked examples follow.
>>> observed_measurement("O=C1COCC(=O)N1CCCCCCN1CCCCC1")
"121 to 122 °C"
>>> observed_measurement("Cn1nnnc1CC(O)(c1ccccc1)c1ccc(F)cc1 (stereo unspecified)")
"113 to 114 °C"
>>> observed_measurement("NC(C(=O)O)c1ccc(C(=O)O)cc1SCCc1ccccc1 (stereo unspecified)")
"227 to 231 °C"
>>> observed_measurement("C#CC1(OC(C)=O)CCC2C3CCc4cc(OC)ccc4C3CCC21CC (stereo unspecified)")
"178 to 182 °C"

Recorded melting point (compound O=[N+]([O-])c1cccc(-n2ccnc2)c1 ): 101 to 102 °C

====

# maps each entry to its melting point
# unit: °C | format: bare number

>>> observed_measurement("CCOP(=O)(O)C(=Nc1ccc(-c2c[nH]cn2)cc1)NC(C)C")
235

The record that follows has no melting point shown yet.
Recorded melting point (compound CC(C)C[C@H](C(=O)OCc1ccccc1)N1CC[C@]2(CCCN2C(=O)C(C)C)C1=O ): 87

====

# maps each entry to its melting point

>>> observed_measurement("COc1ccc(C=Cc2cc(I)c(OC)c(OC)c2)cc1O")
"92 to 94 °C"
>>> observed_measurement("O=C(O)C=c1sc2n(c1=O)Cc1ccccc1N=2")
"263 to 264 °C"
>>> observed_measurement("O=c1c(Cl)c(OCc2ccc(F)cc2F)ccn1Cc1ccc2c(c1)CCN2")
"137 to 139 °C"

The record that follows has no melting point shown yet.
Recorded melting point (compound CSC(=O)C(=O)c1nsc(NC=O)n1 ): 186 to 187 °C

====

# maps each entry to its melting point

>>> observed_measurement("OC1(c2ccccc2)CCN(CCc2c[nH]c3ccccc23)CC1")
"133 to 137 °C"
>>> observed_measurement("COc1ccc(CNc2nc(OCc3ccccn3)ncc2C(N)=O)cc1Cl")
"208 to 209 °C"
>>> observed_measurement("Cn1c(C(F)(F)F)cc(F)c(-c2ccc(Cl)cc2)c1=O")
"120 to 122 °C"
>>> observed_measurement("CNC(=O)C(Cc1ccccc1)NC(=O)C(CC(C)C)C(S)CC(=O)OC (stereo not drawn)")
"169 to 171 °C"

Recorded melting point (molecule CC1(C)CN=C2C(=O)c3cc(S(=O)(=O)N4CCCC4)ccc3N2C1 ): 200 to 201 °C

Recorded melting point (molecule O=[N+]([O-])CS(=O)(=O)c1ccc2c(c1)OCO2 ): 131 to 132 °C

Recorded melting point (molecule CCc1ccc(-c2ccc(-c3ccc(CC)s3)c(F)c2)cc1 ): 67 °C

Recorded melting point (molecule CC(C)[C@H](NC(=O)OCc1ccccc1)C(=O)NC(Cc1ccccc1)C(O)C(Cc1ccccc1)NC(=O)[C@@H](NC(=O)OCc1ccccn1)C(C)C (stereo partly drawn) ): 194 to 195 °C

Recorded melting point (molecule CCc1nn2c(-c3ccc(Cl)cc3Cl)cccc2c1N(CC)CC ): 118 to 121 °C

Recorded melting point (molecule CCN(C)c1nsc(NC(=O)NC)c1C(N)=O ): 165 to 168 °C

Recorded melting point (molecule CC1(C)CC=C(Nc2ccccc2Cl)C(=O)C1 ): 150 to 152 °C

Recorded melting point (molecule COc1cc(Nc2c(C#N)cnc3cc(-c4cccc5ccccc45)ccc23)c(Cl)cc1Cl ): 192 to 193 °C

Recorded melting point (molecule OC(CCCN1CC=C(c2ccc(Cl)cc2)CC1)c1ccc(Cc2ccc(Cl)cc2)cc1 (stereo not drawn) ): 104 to 105 °C
